Tested on: MPX Zaire (V79-1-005-Scab)
PROTOCOL NOTES: organism not typed
Assay type: cell-based, monkeypox

COMPOUND	Therapeutic index (TI) MPX Vero
CC(C)(C)C(=O)OCOP(=O)(COCCn1cnc2c(N)ncnc21)OCOC(=O)C(C)(C)C [bis-POM-PMEA]	1.0
Nc1nccc2c1ncn2C1C=C(CO)C(O)C1O (single isomer, unassigned; (-)) [C3-Npc A]	10000
Nc1ncnc2c1ncn2C[C@@H](CO)OCP(=O)(O)O [HPMPA]	9.2
CN1C(=O)/C(=N\NC(N)=S)c2ccccc21 [Methisazone, methisazone]	1.5
Nc1ccn(C[C@H]2COP(=O)(O)CO2)c(=O)n1 [cHPMPC]	6.5
Nc1ccn(C[C@@H](CO)OCP(=O)(O)O)c(=O)n1 [Cidofovir]	14.9
NC(=O)c1ncn([C@@H]2O[C@H](CO)[C@@H](O)[C@H]2O)n1 [Ribavirin]	16.9
Nc1nccc2c1ncn2[C@@H]1C[C@@H](CO)[C@H](O)[C@@H]1O [C-ca3-Ado, Carbocyclic 3-deazaadenosine]	250
NC(=O)c1csc([C@@H]2O[C@H](CO)[C@@H](O)[C@H]2O)n1 [Tiazofurin]	4.5

====

System: VAR-YAM (1946 Japan Yamada isolate of VAR major)
PROTOCOL NOTES: organism not typed
Format: cell-based, variola major
CONDITION DETAILS: LLC-MK2, read-out: IC50 VAR-YAM LLC-MK2

SMILES RECORD	TARGET DESC	IC50, µg/mL
Nc1ccn(C[C@@H](CO)OCP(=O)(O)O)c(=O)n1	VAR-YAM (1946 Japan Yamada isolate of VAR major)	2.7
Nc1ccn(C[C@H]2COP(=O)(O)CO2)c(=O)n1	VAR-YAM (1946 Japan Yamada isolate of VAR major)	6.1
CN1C(=O)/C(=N\NC(N)=S)c2ccccc21	VAR-YAM (1946 Japan Yamada isolate of VAR major)	43.3

Provenance of the data: paper PMC9533837
